test.method.notes: Drug concentration in brain tissues of rats, oral gavage
Format: in vivo
conditions: SD, brain/plasma, rat, p.o. 20 mg/kg, 0.5 hour, read-out: Brain-to-blood ratio
measurement.kind: Kp at 0.5 h

# input # return recorded Kp at 0.5 h for input C[C@@H]1CN(C(=O)[C@@H]2CN(C3CCOCC3)C[C@H]2c2ccc(F)cc2F)C[C@H](C)N1c1ccc(F)cc1 (single isomer, unassigned)
# output 11

###

test.method.notes: Drug concentration in brain tissues of rats, oral gavage
Type: in vivo
conditions: SD, brain/plasma, rat, p.o. 20 mg/kg, 4 hours, read-out: Brain-to-blood ratio
measurement.kind: Kp at 4 h
# answer = number (no unit)

# input Note Kp at 4 h for the molecule shown: C[C@@H]1CN(C(=O)[C@@H]2CN(C3CCOCC3)C[C@H]2c2ccc(F)cc2F)C[C@H](C)N1c1ccc(F)cc1 (single isomer, unassigned)
# output 9.5
